# collection of pKi values tested on 5-hydroxytryptamine receptor 6 (Homo sapiens, UniProt P50406)
# Sequence (P50406 whole entry): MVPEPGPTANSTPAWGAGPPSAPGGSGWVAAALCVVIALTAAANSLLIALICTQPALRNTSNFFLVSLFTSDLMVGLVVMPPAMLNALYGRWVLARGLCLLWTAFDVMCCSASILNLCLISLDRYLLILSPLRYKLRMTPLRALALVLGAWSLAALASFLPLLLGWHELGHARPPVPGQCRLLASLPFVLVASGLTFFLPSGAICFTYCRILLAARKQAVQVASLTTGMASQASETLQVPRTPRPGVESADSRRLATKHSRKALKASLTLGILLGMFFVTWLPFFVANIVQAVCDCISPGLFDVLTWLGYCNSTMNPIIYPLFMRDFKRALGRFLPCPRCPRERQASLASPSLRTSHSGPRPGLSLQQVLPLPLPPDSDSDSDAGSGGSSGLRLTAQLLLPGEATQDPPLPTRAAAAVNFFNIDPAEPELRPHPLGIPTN
Note on pKi: it is the negative log10 of concentration, concentration in mol/L.

Query :: Reported pKi, compound NCCc1c[nH]c2ccc(NS(=O)(=O)c3ccc4c(Cl)cccc4c3)cc12 : ____
Result :: 9.70

Query :: Could you do the same for CCOC(=O)c1[nH]c2ccccc2c1CCN , please?
Result :: 7.70

Query :: Now give it for COc1ccc2[nH]c(-c3ccccc3)c(CCN(C)C)c2c1 too.
Result :: 7.30

Query :: What about this compound? Nc1ccc(S(=O)(=O)Nc2cc(N)nc(Br)c2)cc1
Result :: 7.30

Data credit: ChEMBL document CHEMBL1140284
